// data source = patent US20140128352A1

tested_system: outer ubiquinone binding site of complex III (IIIQO) (Rattus norvegicus, UniProt P00159+P20788)
Construct: freshly isolated muscle mitochondria were assayed; from tissue; host or cells: rat skeletal muscle mitochondria (Wistar, Harlan Laboratories)
assay_procedure: High-throughput screen: ROS production from outer ubiquinone binding site of complex III (IIIQO)
Type: biochemical
recorded_conditions: Table 7; percent change in ROS from DMSO controls
Define the label as t when IIIQO is strictly less than -1 and as f in all remaining cases.

Cc1cc(C)c(OCC(O)CNC(C)(C)CC(C)(C)C)c(C)c1.Cl (centres unmarked)    t
O=[N+]([O-])c1ccc(Oc2ccc(S(=O)(=O)NC3CCCCC3)cc2)cc1    f
O=C(Nc1ccccc1[N+](=O)[O-])c1cccc(S(=O)(=O)Nc2ccccc2)c1    t
O=[N+]([O-])c1ccc(Oc2ccc(S(=O)(=O)Nc3ccc4c(c3)OCCO4)cc2)cc1    f

Strictly below -1 in IIIQO? O=[N+]([O-])c1ccc(Oc2ccc(S(=O)(=O)Nc3ccc(F)cc3)cc2)cc1
f

* * *

System: ubiquinone binding site of complex I (IQ)
assay_procedure: High-throughput screen: ROS production from ubiquinone binding site of complex I (IQ), isolated skeletal muscle mitochondria
Type: biochemical, rat
recorded_conditions: Table 8; percent change in ROS from DMSO controls
Measured IQ, listed per entry for reference.
Keep it simple and answer with nothing but the number.

Here are 5 molecules together with their reported answers.
CCC1CCCCN1C/C=C/c1ccc(N(C)C)cc1 (centres unmarked)    0
CCCCN(Cc1ccccc1)Cc1cccc(Oc2ccc(Cl)cc2)c1    0.4
CC(C)Cc1ccc(C(C)C(=O)Nc2ccccc2O)cc1 (centres unmarked)    −40.0
O=C(O)C1CCCCC1C(=O)NC1CCCCCCC1 (centres unmarked)    −0.7
O=C(Nc1ccccc1C(=O)O)c1ccccc1    −1.0

Name the recorded IQ for CCSC1=C(C#N)C2(CCCC2)C(C#N)C(=O)N1 (centres unmarked) .
−52.5

Given the molecule C=CCSc1nc(N)c(C#N)c(CC)c1C#N , what is its reported IQ?
−36.5

Endpoint output: IQ of CCCN(CCO)Cc1ccc2c(c1)c1ccccc1n2CC . Value?
−0.1

* * *

tested_system: flavin binding site of complex I (IF) (Rattus norvegicus, UniProt Q5XIH3)
Construct: freshly isolated muscle mitochondria were assayed; from tissue; host or cells: rat skeletal muscle mitochondria (Wistar, Harlan Laboratories)
Sequence (Q5XIH3 21-464 limits assumed, one chain of several): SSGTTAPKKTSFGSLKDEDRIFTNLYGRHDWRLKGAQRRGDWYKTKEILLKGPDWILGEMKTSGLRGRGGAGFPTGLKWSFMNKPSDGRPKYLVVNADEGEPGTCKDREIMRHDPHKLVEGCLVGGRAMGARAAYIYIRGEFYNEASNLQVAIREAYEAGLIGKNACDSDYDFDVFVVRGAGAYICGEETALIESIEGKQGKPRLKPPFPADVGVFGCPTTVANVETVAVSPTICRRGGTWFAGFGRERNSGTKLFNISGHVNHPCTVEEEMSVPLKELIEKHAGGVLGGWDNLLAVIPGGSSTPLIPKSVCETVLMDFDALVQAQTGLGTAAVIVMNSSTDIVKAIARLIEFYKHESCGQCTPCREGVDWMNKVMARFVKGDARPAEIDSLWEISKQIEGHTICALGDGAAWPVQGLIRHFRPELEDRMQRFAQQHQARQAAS
assay_procedure: High-throughput screen: ROS production from flavin binding site of complex I (IF)
Type: biochemical
recorded_conditions: Table 9; percent change in ROS from DMSO controls
Label 1 (yes) for high-side IF (at or above -30) and 0 (no) for low-side IF (below it).

// below: answered molecules
CC1=CC(C)(C)N(Cc2ccc([N+](=O)[O-])cc2)c2ccccc21    1 (yes)
CCCCN(Cc1ccccc1)Cc1cccc(Oc2ccc(Cl)cc2)c1    1 (yes)
CC1=CC(C)C(C2OCC(CN3CCCCC3)O2)C(C)C1 (stereo not drawn)    0 (no)
C=CCSc1nc(N)c(C#N)c(CC)c1C#N    1 (yes)
O=C(O)CCC(=O)Nc1ccc(-c2nc3ccccc3o2)cc1    1 (yes)

--- query ---
Kindly determine if IF recorded for COc1cccc(/C=C/C(=O)c2c(O)cc(C)oc2=O)c1O is above or exactly -30.
1 (yes)

* * *

tested_system: flavin binding site of complex I (IF) (Rattus norvegicus, UniProt Q5XIH3)
Construct: freshly isolated muscle mitochondria were assayed; from tissue; host or cells: rat skeletal muscle mitochondria (Wistar, Harlan Laboratories)
assay_procedure: High-throughput screen: ROS production from flavin binding site of complex I (IF)
Type: biochemical
recorded_conditions: Table 7; percent change in ROS from DMSO controls
parameter_measured: IF
Please respond with just the number, no unit label.

Examples with their reported IF follow.
O=C(Nc1ccccc1[N+](=O)[O-])c1cccc(S(=O)(=O)Nc2ccccc2)c1 [Compound 73]    −0.7
O=[N+]([O-])c1ccc(Oc2ccc(S(=O)(=O)Nc3ccc(F)cc3)cc2)cc1 [Compound 84]    −1.4
O=[N+]([O-])c1ccc(Oc2ccc(S(=O)(=O)Nc3ccc4c(c3)OCCO4)cc2)cc1 [Compound 85]    0.5

Please find the next compound below.
I am curious: what IF value has been reported for O=[N+]([O-])c1ccc(Oc2ccc(S(=O)(=O)NC3CCCCC3)cc2)cc1 [Compound 4] ?
3.1
